Sourced from patent US20220016215A1

Task for the reader: assign each of the following binders its reported GLP1R pEC50.
biological target: human GLP-1R (human, UniProt P43220 24-463); test: cell-based or functional assay
Non-standard residues stand in square brackets, D forms with d. No end group written: not given here. *: point of attachment. Palmitoyl = CCCCCCCCCCCCCCCC(=O)*
One number for each entry.

Go through the list and state GLP1R pEC50 for each entry.
1. Ac-YAEGTFISDYSIAMDKIHQQDFVNWLLAQKGKKNDWKHNIIQ-OH [Compound No. 1]
2. YXEGTFISDYSIAMDKIHQQDFVNWLLAQKGKKNDWKHNITQK (Aib at 2; Lys-(gamma-glutamic acid)3-palmitoyl at 43; C-terminal -OH) [Compound No. 19]
3. Y[dA]EGTFISDYSIAMDKIHQQDFVNWLLAQKGKKNDWK(Palmitoyl)HNIIQ-NH2 [Compound No. 2]
4. Y[dA]EGTFISDYSIAMDKIHQQDFVNWLLAQKGKKNDWKHNIIQ-NH2 [Compound No. 14]

1. 6.5
2. 8.26
3. 8.3
4. 6.03
